Data origin, for the record: the RNAGym collection of RNA variant scans (doi:10.7554/elife.80360)

B1: Hairpin Ribozyme (parent)
chain: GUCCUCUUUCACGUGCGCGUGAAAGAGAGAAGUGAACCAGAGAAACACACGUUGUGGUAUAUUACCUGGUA

- Variants of: B1
- test.name: self-cleavage, relative activity (ratio to wild type); higher = more cleavage; co-transcriptional
Threshold check on self-cleavage: at or above 0.3 gives 1, strictly below gives 0.

C12A U55A
0

For this variant, is measured self-cleavage 0.3 or higher? U7G C66G
0
